Hey, just so you know, these numbers are from patent US20210121563A1.

- measured.target: Programmed Death 1 (PD-1) (UniProt Q15116 25-288, limits assumed)
- Sequence (Q15116 25-288 limits assumed): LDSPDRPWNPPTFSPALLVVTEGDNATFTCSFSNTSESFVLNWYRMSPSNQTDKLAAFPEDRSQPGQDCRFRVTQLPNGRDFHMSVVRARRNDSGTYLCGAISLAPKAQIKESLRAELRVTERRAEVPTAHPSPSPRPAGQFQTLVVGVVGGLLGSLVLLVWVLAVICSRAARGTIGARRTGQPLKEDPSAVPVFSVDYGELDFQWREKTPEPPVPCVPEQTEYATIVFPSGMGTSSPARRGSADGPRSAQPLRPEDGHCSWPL
- procedure.text: rank of the clone in the competition binding assay with labeled murine mAb BAP049, 2nd experiment; higher number = worse
quantity.measured: Competition Binding, 2nd exp. (rank)
Give bare numbers.

>  <binder>
BAP049-hum01 (antibody, human IgG4 S228P, kappa, V domains shown, also called humanized BAP049 clone hum01) VH: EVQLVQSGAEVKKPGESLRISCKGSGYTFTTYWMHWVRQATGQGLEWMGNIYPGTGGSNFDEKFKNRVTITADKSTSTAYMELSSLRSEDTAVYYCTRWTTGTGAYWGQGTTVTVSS VL: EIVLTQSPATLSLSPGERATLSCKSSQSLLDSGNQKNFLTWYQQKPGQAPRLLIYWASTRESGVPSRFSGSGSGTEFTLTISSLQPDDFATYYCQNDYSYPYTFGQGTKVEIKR

>  <Competition Binding, 2nd exp. (rank)>
2

$$$$
>  <binder>
BAP049-hum12 (antibody, human IgG4 S228P, kappa, V domains shown, also called Clone No. 12) VH: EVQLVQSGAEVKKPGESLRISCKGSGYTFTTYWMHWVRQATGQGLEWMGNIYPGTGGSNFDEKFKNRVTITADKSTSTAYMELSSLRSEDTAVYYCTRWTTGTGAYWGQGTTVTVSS VL: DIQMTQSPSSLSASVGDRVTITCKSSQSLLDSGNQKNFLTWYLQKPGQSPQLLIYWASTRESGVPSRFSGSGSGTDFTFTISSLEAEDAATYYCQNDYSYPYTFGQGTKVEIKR

>  <Competition Binding, 2nd exp. (rank)>
16

$$$$
>  <binder>
BAP049-hum03 (antibody, human IgG4 S228P, kappa, V domains shown, also called Clone No. 3) VH: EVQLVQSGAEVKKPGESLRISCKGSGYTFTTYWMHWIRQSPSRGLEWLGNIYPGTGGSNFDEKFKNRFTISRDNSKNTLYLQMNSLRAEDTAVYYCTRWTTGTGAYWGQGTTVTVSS VL: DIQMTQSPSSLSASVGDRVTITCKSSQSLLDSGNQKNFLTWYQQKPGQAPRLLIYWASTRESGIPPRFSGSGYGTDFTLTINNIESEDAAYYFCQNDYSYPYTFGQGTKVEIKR

>  <Competition Binding, 2nd exp. (rank)>
14

$$$$
>  <binder>
BAP049-hum02 (antibody, human IgG4 S228P, kappa, V domains shown, also called Clone No. 2) VH: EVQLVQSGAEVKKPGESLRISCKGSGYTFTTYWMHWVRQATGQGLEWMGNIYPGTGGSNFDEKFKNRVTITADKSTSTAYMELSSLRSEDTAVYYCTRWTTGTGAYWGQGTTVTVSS VL: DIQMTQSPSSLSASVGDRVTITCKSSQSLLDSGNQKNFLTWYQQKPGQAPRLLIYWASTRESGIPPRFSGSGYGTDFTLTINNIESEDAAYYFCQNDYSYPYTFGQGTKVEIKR

>  <Competition Binding, 2nd exp. (rank)>
2

$$$$

I'm hoping you can list Competition Binding, 2nd exp. (rank) for every binder here, please.
1. BAP049-hum16 (antibody, human IgG4 S228P, kappa, V domains shown, also called Clone No. 16) VH: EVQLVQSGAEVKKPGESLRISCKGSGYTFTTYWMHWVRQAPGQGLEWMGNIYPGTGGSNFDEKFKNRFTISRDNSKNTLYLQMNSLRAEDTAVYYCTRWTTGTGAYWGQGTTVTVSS VL: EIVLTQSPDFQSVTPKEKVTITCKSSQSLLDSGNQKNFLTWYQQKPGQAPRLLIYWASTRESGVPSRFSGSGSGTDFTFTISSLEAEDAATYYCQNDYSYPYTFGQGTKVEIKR
2. BAP049-hum04 (antibody, human IgG4 S228P, kappa, V domains shown, also called Clone No. 4) VH: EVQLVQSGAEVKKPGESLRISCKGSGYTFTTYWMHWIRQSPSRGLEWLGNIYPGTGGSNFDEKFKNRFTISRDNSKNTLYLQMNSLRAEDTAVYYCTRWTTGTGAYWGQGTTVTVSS VL: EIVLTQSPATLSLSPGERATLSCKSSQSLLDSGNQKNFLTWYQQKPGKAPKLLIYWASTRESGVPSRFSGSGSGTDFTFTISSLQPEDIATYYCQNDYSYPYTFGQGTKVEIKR

Response line:
1: 15; 2: 15
